// reported normalized growth per item
assay: chemical genetic growth profiling, strain panel (AID 1159580);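 further: tested at 20 µM; growth read once vehicle control cultures reached saturation at 30 °C; 1 = growth at the plate median or of vehicle wells; lower values mean less growth of the strain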; conditions: S. cerevisiae deletion strains, growth OD, locus YLR342W, strain FKS1, active compounds read low
Among all 5,500 compounds or so, about 2,000 (36%) were called active. Another 18% or so got no clear call; they are omitted. This is one part of the list.

C[C@@H]1CC[C@@]2(OC1)OC1C(O)C3C4CC[C@H]5C[C@H](O[C@@H]6O[C@H](CO)[C@H](O[C@@H]7O[C@H](CO)[C@@H](O)[C@H](O[C@@H]8OC[C@@H](O)[C@H](O)[C@H]8O)[C@H]7O[C@@H]7O[C@H](CO)[C@H](O)[C@H](O[C@@H]8O[C@H](CO)[C@@H](O)[C@H](O)[C@H]8O)[C@H]7O)[C@H](O)[C@H]6O)[C@H](O)C[C@]5(C)C4CC[C@]3(C)C1[C@@H]2C (stereo not given in full) | 0.991 (inactive)

Moving on to another compound below.
In plain terms, CC(=O)O[C@H]1C[C@@]2(C)[C@H](c3ccoc3)OC(=O)[C@H]3O[C@]32[C@@]2(C)C1[C@]1(C)C(C[C@H]2OC(C)=O)C(C)(C)[C@H](OC(C)=O)C[C@@H]1OC(C)=O (stereo not given in full) has a documented normalized growth of 0.995 (inactive)
